Numbers sourced from ChEMBL document CHEMBL1132261.

settings: octanol/water; read-out: Log Ko/w
measured parameter: logP
In your answer, state the number alone without any accompanying words.

[
  {
    "line notation": "COc1ccc(OC)c(N(C)Cc2cnc3nc(N)nc(N)c3c2C)c1",
    "measured parameter": "logP",
    "result value": 2.42
  },
  {
    "line notation": "Cc1c(CNc2ccccc2)cnc2nc(N)nc(N)c12",
    "measured parameter": "logP",
    "result value": 1.79
  },
  {
    "line notation": "COc1cc(N(C)Cc2cnc3nc(N)nc(N)c3c2C)cc(OC)c1OC",
    "measured parameter": "logP",
    "result value": 1.76
  }
]

Q: Report logP for `COc1cccc(NCc2cnc3nc(N)nc(N)c3c2C)c1` please.
Ans: 2.14

Q: Report logP for `Cc1c(CNc2ccccc2Cl)cnc2nc(N)nc(N)c12` please.
Ans: 2.35
